biological target: RanGTP-importin-beta complex (human Ran / KPNB1); test: disruptors of RanGTP/KPNB1 binding – biochemical, FRET, CFP/YFP, cell-free homogeneous, confirmation (AID 2823); conditions: CFP-Ran/YFP-importin-beta FRET ratio
The source made the active and inactive calls. No rule for the calls is given here.
Result category, one only: Y (active), N (inactive)

INSERT INTO measurements (compound_string, assigned_category) VALUES
  ('O=C(Cn1nnc2ccccc21)N/N=C\c1cccs1', 'N'),
  ('COc1ccc(-n2cnc3cc(NCc4cccs4)ccc32)cc1', 'N'),
  ('Nc1nc(CSc2nc3ccccc3s2)nc(N2CCCCC2)n1', 'N'),
  ('N#Cc1c(N)nc2c(c1-c1ccccc1)CCC2', 'Y');

Okay, now this compound:
Query :: Could you kindly confirm the outcome this assay logged for `N#C/C(=C\N1CCN(Cc2ccc3c(c2)OCO3)CC1)c1nc2ccccc2s1` ?
Result :: N

---

molecular target: RanGTP-importin-beta complex (human Ran / KPNB1); experiment: disruptors of RanGTP/KPNB1 binding – biochemical, FRET, CFP/YFP, cell-free homogeneous, confirmation (AID 2823); settings: CFP-Ran/YFP-importin-beta FRET ratio
The source made the active and inactive calls. How the calls were made is not given here.
Parameter: IC50

INSERT INTO assay_data (compound, observed_measurement) VALUES
  ('CCc1ccc(C(=O)CSc2ncn[nH]2)cc1', '> 50 µM (inactive)'),
  ('CCc1c(C)c2cc(Cl)c(O)c(CN3CCCCC3)c2oc1=O', '22.9 µM'),
  ('Cc1ccccc1-n1c(=O)cc(N2CCC3(CC2)OCCO3)[nH]c1=O', '> 50 µM (inactive)'),
  ('Cc1ccc(N2CC(=O)N(NC(=O)c3sc4nc(C)cc(C)c4c3N)CC2=O)cc1', '> 50 µM (inactive)'),
  ('COC(=O)C1=CN(Cc2ccc(OC)c(OC)c2)C=C(C(=O)OC)C1c1cccc(O)c1', '14.3 µM'),
  ('O=C(CCN1CCC(c2ccc(Cl)s2)=N1)c1ccc(Cl)s1', '> 50 µM (inactive)'),
  ('C=CCn1c(=O)c(C(=O)Nc2ccc(C)cc2)c(O)c2ccccc21', '> 50 µM (inactive)'),
  ('COc1ccc(N2Cc3ccccc3/C2=N\C(=O)Nc2ccccc2)cc1', '> 50 µM (inactive)'),
  ('CCOc1ccccc1NC1=CC(=O)CC(c2ccccc2)C1 (stereo unspecified)', '> 50 µM (inactive)'),
  ('CCCCN(C)C(=O)c1cccc(OC2CCN(CC(C)(C)C)CC2)c1', '> 50 µM (inactive)');

The record that follows has no IC50 shown yet.
Briefly, IC50 measured for `CCc1cc(=O)oc2c(CN3CCN(C)CC3)c(O)c(Cl)cc12` : 27.1 µM

---

biological target: RanGTP-importin-beta complex (human Ran / KPNB1); assay: disruptors of RanGTP/KPNB1 binding – biochemical, FRET, CFP/YFP, cell-free homogeneous, confirmation (AID 2823); conditions: CFP-Ran/YFP-importin-beta FRET ratio
Active and inactive are the calls of the source. The rule behind the calls is not given here.
Result category, one only: active, inactive

Example entries begin here.
INSERT INTO measurements (molecule, assigned_category) VALUES
  ('Cc1cc2c(c(=O)n1Cc1cccnc1)C(Cc1ccccc1)C(C#N)=C(N)O2 (stereo unspecified)', 'inactive'),
  ('O=[N+]([O-])c1ccc(CNC2CCCc3ccccc32)cc1 (stereo unspecified)', 'inactive');

Query :: Could you kindly confirm the outcome this assay logged for `CC(C)Sc1nc(N2CCOCC2)c2c(c1C#N)CC(C)(C)N(C)C2` ?
Result :: active

Query :: Could you kindly confirm the outcome this assay logged for `Cc1ccc(NC(=S)NCCN2CCOCC2)cc1` ?
Result :: inactive

---

compounds and their reported IC50
molecular target: RanGTP-importin-beta complex (human Ran / KPNB1); assay: disruptors of RanGTP/KPNB1 binding – biochemical, FRET, CFP/YFP, cell-free homogeneous, confirmation (AID 2823); conditions: CFP-Ran/YFP-importin-beta FRET ratio
Active and inactive are the calls of the source. How the calls were made is not given here.

In the examples that follow, each entry is paired with its recorded IC50.
INSERT INTO results (compound, observed_measurement) VALUES
  ('Cc1c(O)ccc2c3c(c(=O)oc12)CCC(C)C3 (stereo not drawn)', '11.9 µM'),
  ('CCN(Cc1ccccc1)C(=O)CN1C(=O)NC(CC)(c2ccc(F)cc2)C1=O (stereo not drawn)', '> 50 µM (inactive)');

The record that follows has no IC50 shown yet.
// compound CC1C2(C)OC(=N)C(C#N)(C(C)O2)C1(C#N)C#N (stereo not drawn) , assay RanGTP-importin-beta complex (human Ran / KPNB1), IC50 value: 44.2 µM

---

target: RanGTP-importin-beta complex (human Ran / KPNB1); experiment: disruptors of RanGTP/KPNB1 binding – biochemical, FRET, CFP/YFP, cell-free homogeneous, confirmation (AID 2823); conditions: CFP-Ran/YFP-importin-beta FRET ratio
Calls of active or inactive are those of the source. How the calls were made is not given here.
Result category, one only: label 1 = active, label 0 = inactive

Example entries begin here.
INSERT INTO results (compound, assigned_category) VALUES
  ('CCOC(=O)c1c(NC(=O)C2CCCCC2)sc2c1CCN(CC)C2', 'label 0'),
  ('Cn1c2ccccc2c(=O)c2ccc(F)cc21', 'label 1'),
  ('Cc1cnc(=O)[nH]c1SCC(=O)c1ccc(F)cc1', 'label 0');

Query :: Could you kindly confirm the outcome this assay logged for `COC(=O)C1=CN(Cc2cccs2)C=C(C(=O)OC)C1c1ccc(OC)cc1OC` ?
Result :: label 1

Query :: Could you kindly confirm the outcome this assay logged for `CNc1cc(F)nc(F)n1` ?
Result :: label 1

Query :: Could you kindly confirm the outcome this assay logged for `Cn1nnnc1SCC(=O)Nc1nn(-c2ccccc2)nc1C(N)=O` ?
Result :: label 0

Query :: Could you kindly confirm the outcome this assay logged for `Cc1cc(C)c2c(N)c(C(=O)NN3CC(=O)N(c4ccccc4F)CC3=O)sc2n1` ?
Result :: label 0

Query :: Could you kindly confirm the outcome this assay logged for `COc1ccccc1Nc1c2ccccc2nc2ccccc12` ?
Result :: label 0

Query :: Could you kindly confirm the outcome this assay logged for `N=C(N)SCc1nc2ccccc2c(=O)n1-c1ccccc1Cl` ?
Result :: label 0

---

target: RanGTP-importin-beta complex (human Ran / KPNB1); assay: disruptors of RanGTP/KPNB1 binding – biochemical, FRET, CFP/YFP, cell-free homogeneous, confirmation (AID 2823); settings: CFP-Ran/YFP-importin-beta FRET ratio
The source made the active and inactive calls. How the calls were made is not given here.
Result category, one only: label 1 for active, label 0 for inactive

INSERT INTO measurements (compound, assigned_category) VALUES
  ('Cc1c(C=O)cnn1CCC(=O)O', 'label 0');

Query :: Could you kindly confirm the outcome this assay logged for `CCOCCCNC(=S)NCCCNc1nc2cc3c(cc2cc1C#N)OCO3` ?
Result :: label 1

Query :: Could you kindly confirm the outcome this assay logged for `Clc1ccc(-c2ncc3ccccn23)cc1` ?
Result :: label 0

Query :: Could you kindly confirm the outcome this assay logged for `CCOC(=O)c1ccc2[nH]cc(C(C)=O)c(=O)c2c1` ?
Result :: label 1

Query :: Could you kindly confirm the outcome this assay logged for `CCOC(=O)/C(C#N)=C/c1ccc(N2CCN(C)CC2)cc1` ?
Result :: label 1

Query :: Could you kindly confirm the outcome this assay logged for `COc1ccc2cc(CCN3C(=O)c4ccccc4C3=O)c(=O)[nH]c2c1` ?
Result :: label 0

Query :: Could you kindly confirm the outcome this assay logged for `CCOC(=O)c1c(NC(=O)Cc2ccccc2)sc2c1CCN(CC)C2` ?
Result :: label 0

Query :: Could you kindly confirm the outcome this assay logged for `Cc1ccc(C(=O)Nc2ncc(Cc3ccc(F)cc3)s2)o1` ?
Result :: label 0

Query :: Could you kindly confirm the outcome this assay logged for `Cc1cc(C)c2c(n1)nn1c(NCCCN(C)C)cc(C)nc21` ?
Result :: label 1

Query :: Could you kindly confirm the outcome this assay logged for COC(=O)C(C)Oc1ccc2c(c1)O/C(=C\c1ccco1)C2=O (stereo not given) ?
Result :: label 1

---

molecular target: RanGTP-importin-beta complex (human Ran / KPNB1); assay: disruptors of RanGTP/KPNB1 binding – biochemical, FRET, CFP/YFP, cell-free homogeneous, confirmation (AID 2823); details: CFP-Ran/YFP-importin-beta FRET ratio
Calls of active or inactive are those of the source. No rule for the calls is given here.
Result category, one only: active, inactive

Query :: Could you kindly confirm the outcome this assay logged for `CCCn1c(SCC(=O)Nc2ccc(NC(C)=O)cc2)nc2c1c(=O)n(C)c(=O)n2C` ?
Result :: inactive

Query :: Could you kindly confirm the outcome this assay logged for `O=C(Cn1c2ccccc2c(=O)c2ccccc21)Nc1ccccc1F` ?
Result :: active

Query :: Could you kindly confirm the outcome this assay logged for CC(=O)O[C@H]1CCC2C3CCC4=CC(=O)CCC4=C3C=C[C@@]21C (some centres not stated) ?
Result :: inactive
